- Tested Target: T1, recombinant human LILRB2 protein (human, UniProt Q8N423 22-460, limits assumed)
- T1 construct: also called recombinant LILRB2 protein
- T1 sequence (Q8N423 22-460 limits assumed): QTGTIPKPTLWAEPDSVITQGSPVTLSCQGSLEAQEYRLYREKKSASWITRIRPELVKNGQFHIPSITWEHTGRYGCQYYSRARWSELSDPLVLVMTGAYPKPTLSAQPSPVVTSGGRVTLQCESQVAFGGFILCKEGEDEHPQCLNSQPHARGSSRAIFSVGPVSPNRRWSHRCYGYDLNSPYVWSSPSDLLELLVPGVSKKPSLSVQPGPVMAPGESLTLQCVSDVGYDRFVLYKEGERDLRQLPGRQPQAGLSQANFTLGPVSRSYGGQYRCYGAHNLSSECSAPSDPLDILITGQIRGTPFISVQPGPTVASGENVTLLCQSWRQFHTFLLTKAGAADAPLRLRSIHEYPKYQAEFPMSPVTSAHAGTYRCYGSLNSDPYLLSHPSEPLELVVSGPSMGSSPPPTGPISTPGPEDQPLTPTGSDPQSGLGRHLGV
- Assay Notes: ELISA, coated recombinant human LILRB2
- Set-up: unit not given here
Can you tell me Bmax for the items I'm about to list?
Field format: numeric only.

Per the records, this binder ( Antibody 2E1_GE6 (antibody, V domains shown) VH: EVQLVESGGGLVQPGGSLRLSCAVSGYSITSGYYWWWIRQAPGKGLEWVAYISYDGNNNYNPSLKNRFTISRDTSKNTFYLQMNSLRAEDTAVYYCAREESTMITTAWFAYWGQGTLVTVSS VL: DIQMTQSPSSLSASVGDRVTITCRASENIYSNNAWYQQKPGKAPKLLIYGATYLASGVPSRFSGSGSGTDYTLTISSLQPEDFATYYCQHFWDTPYTFGQGTKVEIK ) has Bmax equal to 1.65

Per the records, this binder ( Antibody 2E1_GH3 (antibody, V domains shown) VH: EVQLVESGGGLVQPGGSLRLSCAVSGYSITSGYYWNWIRQAPGKGLEWVAYISYDGNNNYNPSLKNRFTISRDTSKNTFYLQMNSLRAEDTAVYYCAREESTMITTAWFAYWGQGTLVTVSS VL: DIQMTQSPSSLSASVGDRVTITCRASENIYSNLAWYQQKPGKAPKLLIYGATNLSSGVPSRFSGSGSGTDYTLTISSLQPEDFATYYCQHFWDTPYTFGQGTKVEIK ) has Bmax equal to 1.14

Per the records, this binder ( Antibody 2E1_GB7 (antibody, V domains shown) VH: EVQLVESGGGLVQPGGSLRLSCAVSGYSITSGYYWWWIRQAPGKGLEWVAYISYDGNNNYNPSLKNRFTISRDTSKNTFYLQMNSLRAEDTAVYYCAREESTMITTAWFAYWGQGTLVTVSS VL: DIQMTQSPSSLSASVGDRVTITCLASENIYSNLAWYQQKPGKAPKLLIYGATNLASGVPSRFSGSGSGTDYTLTISSLQPEDFATYYCQHFWDTPYTFGQGTKVEIK ) has Bmax equal to 1.48

Per the records, this binder ( Antibody 2E1_FC11 (antibody, V domains shown, also called A16) VH: EVQLVESGGGLVQPGGSLRLSCAVSGYSITSGYYWNWIRQAPGKGLEWVAYISYDGNINYNPSLKNRFTISRDTSKNTFYLQMNSLRAEDTAVYYCAREESTMITTAWFAYWGQGTLVTVSS VL: DIQMTQSPSSLSASVGDRVTITCRASENIYSNLAWYQQKPGKAPKLLIYGATNLASGVPSRFSGSGSGTDYTLTISSLQPEDFATYYCQHFWDYPYTFGQGTKVEIK ) has Bmax equal to 1.37

Per the records, this binder ( Antibody 2E1_GE11 (antibody, V domains shown) VH: EVQLVESGGGLVQPGGSLRLSCAVSGYSITSGYSWNWIRQAPGKGLEWVAYISYDGNNNYNPSLKNRFTISRDTSKNTFYLQMNSLRAEDTAVYYCAREESTMITTAWFAYWGQGTLVTVSS VL: DIQMTQSPSSLSASVGDRVTITCGASENIYSNLAWYQQKPGKAPKLLIYGATELASGVPSRFSGSGSGTDYTLTISSLQPEDFATYYCQHFWDTPYTFGQGTKVEIK ) has Bmax equal to 1.37
